The following molecules are listed with their measured z-score values.
- ASSAY METHOD TEXT: MM1S myeloma cell viability, profiling panel, resazurin fluorescence, basal, 24 h, PK04 Diversity Set (AID 1174);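 also: MM1S multiple myeloma cell line; test concentration not given here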
- RUN PARAMETERS: higher = more signal, called active from +8 up or from −8 down

MOLECULE | z-score
CC(C)NC(=O)[C@@]1(C)c2ccccc2C(=O)N(Cc2cc(C(F)(F)F)cc(C(F)(F)F)c2)[C@H]1c1ccc(CO)cc1 | -1.21
C=CC[C@@]1(C(=O)NCCN2CCOCC2)N=C(c2ccc(OCCCO)cc2)O[C@@H]1c1ccccc1N=[N+]=[N-] | -1.05
O=C(c1ccccc1)N1Cc2ccccc2C[C@@]2(COC(c3ccc(OCCCO)cc3)=N2)C1=O | 0.26
COCCOC(=O)N1C(=O)[C@@]2(c3cc(C#Cc4ccc(OC)cc4)ccc31)[C@H](c1ccccc1OCCO)N1[C@H](c3ccccc3)[C@H](c3ccccc3)OC(=O)[C@H]1[C@@H]2C(=O)NC[C@H](O)c1ccccc1 | -0.444
C[N+](C)(C)CCCC[C@@H]1NC(=O)[C@H]2C[C@@H](C(=O)NCCCCCCNC(=O)CS)[C@@H](c3cccc(OCCO)c3)N2C1=O | -0.0499
CC(C)C[C@@H]1NC(=O)[C@@H]2C[C@H](C(=O)O)[C@H](c3cccc(OCCO)c3)N2C1=O | 0.254
COC(=O)[C@]1(CCC(=O)OC(C)(C)C)N=C(c2ccc(OCCCO)cc2)O[C@@H]1c1ccccc1CN=[N+]=[N-] | -5.09
C=C(CCCC)/C(=C/C[C@@H](OC(C)=O)c1ccc(OCCO)cc1)c1cnc2ccccc2c1 | -0.267
CCCc1cc2c(n1Cc1cc(F)cc(F)c1)C(C)C1CN(C(=O)c3ccccc3)C(C)(C(=O)OC)C21 (stereo not given) | -1.65
COC(=O)C(CC#Cc1ccc2c(c1)[C@]1(C(=O)N2)[C@H](c2ccc(OCCO)cc2)N2[C@H](c3ccccc3)[C@H](c3ccccc3)OC(=O)[C@H]2[C@@H]1C(=O)N1CCc2cc(OC)c(OC)cc2C1)C(=O)OC | 0.164
CN1C(=O)C2C=CC(C(O)c3ccco3)N(Nc3ccccc3)C2C1=O (stereo not given) | -0.944
O=C1C[C@@](C(=O)NCC(F)(F)F)(c2ccc([N+](=O)[O-])cc2)[C@@H](c2ccc(CO)cc2I)N1C1CCCCC1 | 0.233
C=C(COC)C(=O)CC[C@@H](OC(C)=O)c1ccc(CO)o1 | 0.145
CC(C)[Si](C#Cc1ccc(Oc2ccccc2)cc1)(O[Si](C#Cc1ccc(Oc2ccccc2)cc1)(C(C)C)C(C)C)C(C)C | 0.698
C=C(/C(=C/C[C@H](OC(C)=O)c1ccccc1OCCO)c1cnc2ccccc2c1)C(C)C | -1.09
